Readings of AC50 for the listed compounds
target: PKR K410E (Homo sapiens, UniProt P30613, K410E); assay: PKR mutant assay (K410E), AC50, LDH/NADH-coupled, absorbance at 340 nm; type: biochemical; settings: Table 2; enzyme assay
Sequence (P30613 whole entry K410E): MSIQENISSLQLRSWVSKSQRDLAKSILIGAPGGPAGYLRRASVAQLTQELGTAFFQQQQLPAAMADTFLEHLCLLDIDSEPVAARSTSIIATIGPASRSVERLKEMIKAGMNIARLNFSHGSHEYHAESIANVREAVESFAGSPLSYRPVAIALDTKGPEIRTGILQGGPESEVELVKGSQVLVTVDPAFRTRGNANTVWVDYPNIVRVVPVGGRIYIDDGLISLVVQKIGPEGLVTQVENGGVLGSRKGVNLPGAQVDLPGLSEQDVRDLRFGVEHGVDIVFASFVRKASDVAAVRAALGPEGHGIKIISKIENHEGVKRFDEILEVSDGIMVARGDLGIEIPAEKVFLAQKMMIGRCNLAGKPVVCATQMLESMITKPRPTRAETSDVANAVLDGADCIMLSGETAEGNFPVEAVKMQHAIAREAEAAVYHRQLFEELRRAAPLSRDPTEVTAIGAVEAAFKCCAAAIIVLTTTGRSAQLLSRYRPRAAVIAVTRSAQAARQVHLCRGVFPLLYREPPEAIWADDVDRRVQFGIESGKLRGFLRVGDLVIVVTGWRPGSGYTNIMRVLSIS

Below, each entry is followed by its recorded AC50 result.
Value of AC50 reported for the compound Cn1c2nc(C(C(N)=O)c3ccccc3)sc2c2cnn(Cc3cccc4[nH]ncc34)c(=O)c21 (centres unmarked) is < 300 nM

Value of AC50 reported for the compound `CSc1nc2c(s1)c1cnn(Cc3cn4cccnc4n3)c(=O)c1n2C` is > 800 nM

Others:
Value of AC50 reported for the compound `Cn1c2nc(Cc3cccc4cn[nH]c34)sc2c2cnn(Cc3cccc4[nH]ncc34)c(=O)c21` is < 300 nM

Value of AC50 reported for the compound Cn1c2nc([S+](C)[O-])sc2c2cnn(Cc3cccc4c3CCNC4)c(=O)c21 (centres unmarked) is > 800 nM
